What Ki was measured for each of the following?
molecular target: full-length ATR (Homo sapiens (Human)); assay: ATR inhibition assay (radioactive-phosphate incorporation); type: biochemical
Sequence (Q13535 whole entry): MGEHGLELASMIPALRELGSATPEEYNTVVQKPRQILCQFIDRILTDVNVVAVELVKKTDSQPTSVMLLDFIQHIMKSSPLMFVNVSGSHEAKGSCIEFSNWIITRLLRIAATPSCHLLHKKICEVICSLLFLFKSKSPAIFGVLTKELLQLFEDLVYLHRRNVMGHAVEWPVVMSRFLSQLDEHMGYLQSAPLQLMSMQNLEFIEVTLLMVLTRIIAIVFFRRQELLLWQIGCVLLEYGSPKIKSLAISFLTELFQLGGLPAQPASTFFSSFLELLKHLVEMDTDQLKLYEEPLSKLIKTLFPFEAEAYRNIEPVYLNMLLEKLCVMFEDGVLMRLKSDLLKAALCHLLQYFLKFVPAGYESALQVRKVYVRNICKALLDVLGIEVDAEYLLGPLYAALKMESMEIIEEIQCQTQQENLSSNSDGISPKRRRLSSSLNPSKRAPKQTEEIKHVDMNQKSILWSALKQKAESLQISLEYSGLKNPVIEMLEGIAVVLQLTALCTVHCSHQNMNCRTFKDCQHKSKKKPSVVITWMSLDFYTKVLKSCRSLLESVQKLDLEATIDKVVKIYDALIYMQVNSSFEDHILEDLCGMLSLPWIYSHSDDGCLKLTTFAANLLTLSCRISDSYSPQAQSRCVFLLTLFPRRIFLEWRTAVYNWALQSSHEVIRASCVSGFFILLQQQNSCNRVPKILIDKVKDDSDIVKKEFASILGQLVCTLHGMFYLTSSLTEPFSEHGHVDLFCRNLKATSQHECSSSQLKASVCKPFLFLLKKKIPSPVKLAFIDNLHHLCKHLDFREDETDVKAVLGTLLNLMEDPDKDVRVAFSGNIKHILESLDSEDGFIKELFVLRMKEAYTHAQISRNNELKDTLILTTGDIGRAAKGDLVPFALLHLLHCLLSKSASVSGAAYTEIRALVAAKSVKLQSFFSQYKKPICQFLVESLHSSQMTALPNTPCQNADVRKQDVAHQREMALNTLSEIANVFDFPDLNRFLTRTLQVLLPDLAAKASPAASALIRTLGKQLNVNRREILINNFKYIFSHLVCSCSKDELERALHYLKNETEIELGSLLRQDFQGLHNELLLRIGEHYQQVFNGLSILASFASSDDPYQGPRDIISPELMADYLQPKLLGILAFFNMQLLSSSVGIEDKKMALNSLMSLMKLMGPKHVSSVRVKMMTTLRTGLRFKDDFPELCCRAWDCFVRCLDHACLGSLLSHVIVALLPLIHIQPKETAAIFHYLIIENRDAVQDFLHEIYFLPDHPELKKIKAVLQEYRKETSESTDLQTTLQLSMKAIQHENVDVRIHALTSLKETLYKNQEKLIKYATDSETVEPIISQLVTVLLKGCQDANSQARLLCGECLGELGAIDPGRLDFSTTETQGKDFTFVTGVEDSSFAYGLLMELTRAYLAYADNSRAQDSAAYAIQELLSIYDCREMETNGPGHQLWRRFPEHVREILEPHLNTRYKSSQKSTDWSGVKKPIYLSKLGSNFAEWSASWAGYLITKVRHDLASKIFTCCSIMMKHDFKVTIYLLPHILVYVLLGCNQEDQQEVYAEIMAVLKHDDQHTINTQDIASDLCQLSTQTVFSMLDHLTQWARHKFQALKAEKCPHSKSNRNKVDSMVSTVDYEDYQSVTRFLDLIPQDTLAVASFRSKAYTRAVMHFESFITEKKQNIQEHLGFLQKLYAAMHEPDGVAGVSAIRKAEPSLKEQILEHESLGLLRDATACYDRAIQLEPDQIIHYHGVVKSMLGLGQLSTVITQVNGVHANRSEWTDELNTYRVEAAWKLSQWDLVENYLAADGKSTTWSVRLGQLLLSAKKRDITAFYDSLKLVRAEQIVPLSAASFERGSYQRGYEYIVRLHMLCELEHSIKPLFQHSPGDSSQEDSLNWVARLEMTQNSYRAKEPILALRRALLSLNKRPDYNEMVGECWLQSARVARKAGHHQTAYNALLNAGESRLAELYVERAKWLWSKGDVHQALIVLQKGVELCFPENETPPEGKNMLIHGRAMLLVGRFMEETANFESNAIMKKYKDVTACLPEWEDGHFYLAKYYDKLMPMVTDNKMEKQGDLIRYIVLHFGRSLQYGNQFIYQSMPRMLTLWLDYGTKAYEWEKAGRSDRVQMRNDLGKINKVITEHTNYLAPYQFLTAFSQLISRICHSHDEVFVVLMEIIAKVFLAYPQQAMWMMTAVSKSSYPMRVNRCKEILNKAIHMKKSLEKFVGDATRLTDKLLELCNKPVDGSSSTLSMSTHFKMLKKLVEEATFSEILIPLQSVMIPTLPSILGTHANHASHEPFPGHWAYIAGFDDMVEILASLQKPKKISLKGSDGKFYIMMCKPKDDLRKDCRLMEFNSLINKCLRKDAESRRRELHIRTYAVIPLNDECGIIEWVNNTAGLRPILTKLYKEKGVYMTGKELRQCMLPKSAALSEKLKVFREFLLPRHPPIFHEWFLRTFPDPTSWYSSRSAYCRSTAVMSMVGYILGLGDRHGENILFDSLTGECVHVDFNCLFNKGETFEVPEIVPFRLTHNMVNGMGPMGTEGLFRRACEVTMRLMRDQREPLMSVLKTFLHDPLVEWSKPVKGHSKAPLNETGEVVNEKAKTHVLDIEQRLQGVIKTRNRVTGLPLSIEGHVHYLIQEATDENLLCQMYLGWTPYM

In plain terms, Nc1ncc(-c2ccc(C(=O)N3CCCNCC3)cc2)nc1-c1noc(-c2ccccc2)n1 has a documented Ki of 10 to 100 nM

In plain terms, Nc1ncc(-c2ccc(C(=O)N3CCCNCC3)c3ccccc23)nc1-c1nnc(-c2ccccc2)o1 has a documented Ki of 10 to 100 nM

In plain terms, CN(C)C1CCN(C(=O)c2cccc(-c3cnc(N)c(C(=O)Nc4ccccc4)n3)c2)C1 (stereo not shown) has a documented Ki of 100 to 5000 nM

In plain terms, CC(NC(=O)OC(C)(C)C)c1cccc(-c2nnc(-c3nc(-c4ccc(S(=O)(=O)C(C)C)cc4)cnc3N)o2)c1 (stereo not shown) has a documented Ki of ≤ 10 nM

In plain terms, Nc1ncc(-c2cccc(C(=O)NC3CCC(O)CC3)c2)nc1C(=O)Nc1ccccc1 (stereo not shown) has a documented Ki of 100 to 5000 nM

In plain terms, CN(C)C1CCN(C(=O)c2ccc(-c3cnc(N)c(C(=O)Nc4ccccc4)n3)cc2)C1 (stereo not shown) has a documented Ki of 10 to 100 nM

In plain terms, CC(C)(C)CCN1CCCN(C(=O)c2ccc(-c3cnc(N)c(-c4nnc(-c5ccccc5)o4)n3)cc2)CC1 has a documented Ki of 10 to 100 nM

----------
molecular target: full-length ATR (Homo sapiens (Human)); assay: ATR inhibition assay (radioactive-phosphate incorporation); format: biochemical; conditions: ATR Inhibition Ki values; 5 nM full-length ATR, 10 μM ATP
Outcome measure: Ki

In plain terms, CCc1cccc(NC(=O)c2nc(-c3ccc(S(C)(=O)=O)cc3)cnc2N)n1 has a documented Ki of 0.01 to 0.1 µM

In plain terms, Cc1cccc(NC(=O)c2nc(-c3ccc(S(C)(=O)=O)cc3)cnc2N)n1 has a documented Ki of 0.01 to 0.1 µM

In plain terms, C[S+]([O-])c1ccc(-c2cnc(N)c(-c3nnc(-c4ccccc4)o3)n2)cc1 (stereo not drawn) has a documented Ki of ≤ 0.01 µM

In plain terms, CNCc1ccc(-c2nnc(-c3nc(-c4ccc(S(=O)(=O)C(C)CCOC)cc4)cnc3N)o2)c(F)c1 (stereo not drawn) has a documented Ki of ≤ 0.01 µM

In plain terms, CNCc1ccc(-c2nnc(-c3nc(-c4ccc(S(=O)(=O)C(C)C)c(OC(F)(F)F)c4)cnc3N)o2)cc1 has a documented Ki of ≤ 0.01 µM

In plain terms, CS(=O)(=O)c1ccc(-c2cnc(N)c(-c3nnc(-c4ccccc4)o3)n2)cc1 has a documented Ki of ≤ 0.01 µM
